# METHOD_DESCRIPTION: Single-dose intravenous HCQ pharmacokinetics in rats
# Format: in vivo
# PARTICULARS: both sexes, rat; rats, intravenous, 10 mg/kg/day, single day, whole blood
OBSERVED_PROPERTY: AUC(0-inf) (ng·h/mL)
State just the number; it will be interpreted in ng·h/mL.

Data point: CCN(CCO)CCCC(C)Nc1ccnc2cc(Cl)ccc12 (stereo not shown) [HCQ, hydroxychloroquine] ; AUC(0-inf) = 11000

---

# METHOD_DESCRIPTION: Single-dose intravenous HCQ pharmacokinetics in dogs
# Format: in vivo, Beagle dogs
# PARTICULARS: both sexes, beagle, dog, 5 mg/kg/day, single day, whole blood
OBSERVED_PROPERTY: AUC(0-inf) (ng·h/mL)
State just the number; it will be interpreted in ng·h/mL.

Data point: CCN(CCO)CCCC(C)Nc1ccnc2cc(Cl)ccc12 (stereo not shown) [HCQ, hydroxychloroquine] ; AUC(0-inf) = 24200

---

# METHOD_DESCRIPTION: Single-dose intravenous HCQ pharmacokinetics in rats
# Assay type: in vivo
# PARTICULARS: both sexes, rat, whole blood; rats, intravenous, 5 mg/kg/day, single day
OBSERVED_PROPERTY: clearance (mL/min/kg)
State just the number; it will be interpreted in mL/min/kg.

Data point: CCN(CCO)CCCC(C)Nc1ccnc2cc(Cl)ccc12 (stereo not shown) [HCQ, hydroxychloroquine] ; clearance = 20

---

# METHOD_DESCRIPTION: Single-dose intravenous HCQ pharmacokinetics in rats
# Assay type: in vivo
# PARTICULARS: both sexes, rat, whole blood; rats, intravenous, 10 mg/kg/day, single day
OBSERVED_PROPERTY: Tmax (min)
State just the number; it will be interpreted in min.

Data point: CCN(CCO)CCCC(C)Nc1ccnc2cc(Cl)ccc12 (stereo not shown) [HCQ, hydroxychloroquine] ; Tmax = 30

---

# METHOD_DESCRIPTION: Single-dose intravenous HCQ pharmacokinetics in dogs
# Type: in vivo, Beagle dogs
# PARTICULARS: both sexes, beagle, dog, whole blood, 10 mg/kg/day, single day
OBSERVED_PROPERTY: Tmax (min)
State just the number; it will be interpreted in min.

Data point: CCN(CCO)CCCC(C)Nc1ccnc2cc(Cl)ccc12 (stereo not shown) [HCQ, hydroxychloroquine] ; Tmax = 30

---

# METHOD_DESCRIPTION: Single-dose intravenous HCQ pharmacokinetics in dogs
# Type: in vivo, Beagle dogs
# PARTICULARS: both sexes, beagle, dog, whole blood, 10 mg/kg/day, single day
OBSERVED_PROPERTY: Vd (L/kg)
State just the number; it will be interpreted in L/kg.

Data point: CCN(CCO)CCCC(C)Nc1ccnc2cc(Cl)ccc12 (stereo not shown) [HCQ, hydroxychloroquine] ; Vd = 6.1

---

# METHOD_DESCRIPTION: Single-dose intravenous HCQ pharmacokinetics in rats
# Assay type: in vivo
# PARTICULARS: both sexes, rat; rats, intravenous, 5 mg/kg/day, single day, whole blood
OBSERVED_PROPERTY: AUC(0-inf) (ng·h/mL)
State just the number; it will be interpreted in ng·h/mL.

Data point: CCN(CCO)CCCC(C)Nc1ccnc2cc(Cl)ccc12 (stereo not shown) [HCQ, hydroxychloroquine] ; AUC(0-inf) = 6560

---

# METHOD_DESCRIPTION: Single-dose intravenous HCQ pharmacokinetics in dogs
# Format: in vivo, Beagle dogs
# PARTICULARS: both sexes, beagle, dog, 5 mg/kg/day, single day, whole blood
OBSERVED_PROPERTY: Cmax (ng/mL)
State just the number; it will be interpreted in ng/mL.

Data point: CCN(CCO)CCCC(C)Nc1ccnc2cc(Cl)ccc12 (stereo not shown) [HCQ, hydroxychloroquine] ; Cmax = 1200
